Where these numbers come from: patent US20020137929A1

A collection of molecules and their measured ZEAMX preemergence herbicidal rating
test system: ZEAMX (Corn, Field); test: Preemergence herbicidal evaluation; format: in vivo, Zea mays; conditions: rate 0.2500 kg/ha; rated 4-5 weeks after treatment
Simply state the number, no unit and no words.

Answered examples (2):
- CCOC(=O)/C=C1/S/C(=N/c2cc(-n3c(=O)cc(C(F)(F)F)n(C)c3=O)c(F)cc2Cl)N(CC(=O)OCC)C1=O: 2.0
- CCOC(=O)CN1C(=O)C(CC(=O)O)S/C1=N/c1cc(-n2c(=O)cc(C(F)(F)F)n(C)c2=O)c(F)cc1Cl (stereo not drawn): 3.7

Next, consider the following molecule.
[in] Would you mind telling me what ZEAMX preemergence herbicidal rating value was observed for `C=CCN1C(=O)CSC1=Nc1cc(N2C(=O)C3=C(CCCC3)C2=O)c(F)cc1Cl` ?
[out] 0.0

====

test system: ECHORC (Watergrass (Calif.)); test: Preemergence weed control under flooded paddy conditions; assay type: in vivo, Echinochloa oryzoides; conditions: 0.0625 kg/ha, rated 3-4 weeks after treatment
A collection of compounds and their measured ECHORC herbicidal effect rating
Simply state the number, no unit and no words.

• CN1C(=O)C(CC(=O)O)SC1=Nc1cc(-n2c(=O)cc(C(F)(F)F)n(C)c2=O)c(F)cc1Cl (stereo not drawn) = 0.0
• C=CCN1C(=O)C(CC(=O)OC)SC1=Nc1cc(-n2c(=O)cc(C(F)(F)F)n(C)c2=O)c(F)cc1Cl (stereo not drawn) = 6.0

[in] Would you mind telling me what ECHORC herbicidal effect rating value was observed for C#CCOC(=O)CC1SC(=Nc2cc(-n3c(=O)cc(C(F)(F)F)n(C)c3=O)c(F)cc2Cl)N(C)C1=O (stereo not drawn) ?
[out] 0.0

[in] Then C=CCN1C(=O)C(CC(=O)NS(C)(=O)=O)SC1=Nc1cc(-n2c(=O)cc(C(F)(F)F)n(C)c2=O)c(F)cc1Cl (stereo not drawn) ?
[out] 0.0

[in] Then C=CCN1C(=O)C(CC(=O)NS(=O)(=O)c2ccccc2)SC1=Nc1cc(-n2c(=O)cc(C(F)(F)F)n(C)c2=O)c(F)cc1Cl (stereo not drawn) ?
[out] 0.0

[in] Then CCOC(=O)CN1C(=O)C(CC(=O)NO)S/C1=N/c1cc(-n2c(=O)cc(C(F)(F)F)n(C)c2=O)c(F)cc1Cl (stereo not drawn) ?
[out] 0.0

====

test system: TRZAWR (Wheat, Winter, cv Riband); assay: Preemergence herbicidal evaluation; type: in vivo, Triticum aestivum; settings: rate 0.2500 kg/ha; rated 4-5 weeks after treatment
Parameter: TRZAWR preemergence herbicidal rating

[in] Would you mind telling me what TRZAWR preemergence herbicidal rating value was observed for CCOC(=O)CN1C(=O)C(CC(=O)O)S/C1=N/c1cc(-n2c(=O)cc(C(F)(F)F)n(C)c2=O)c(F)cc1Cl (centres unmarked) ?
[out] 2.6

====

system: CHEAL (Lambsquarters, Common); assay: Preemergence herbicidal evaluation; format: in vivo, Chenopodium album; details: 0.0156 kg/ha, rated 4-5 weeks after treatment
Parameter: Preemergence herbicidal rating CHEAL
Simply state the number, no unit and no words.

* CCOC(=O)CN1C(=O)C(CC(=O)O)SC1=Nc1cc(N2C(=O)CC(C(F)(F)F)CC2=O)c(F)cc1Cl (centres unmarked) [Compound 170] | 9.0

[in] Report Preemergence herbicidal rating CHEAL for CCN1C(=O)CSC1=Nc1cc(-n2c(=O)cc(C(F)(F)F)n(C)c2=O)c(F)cc1Cl [Compound 159] tested on CHEAL (Lambsquarters, Common).
[out] 7.0

[in] Then CC(C)N1C(=O)CSC1=Nc1cc(-n2c(=O)cc(C(F)(F)F)n(C)c2=O)c(F)cc1Cl [Compound 164] ?
[out] 9.0

[in] Then CCOC(=O)CN1C(=O)C(OC)SC1=Nc1cc(-n2c(=O)cc(C(F)(F)F)n(C)c2=O)c(F)cc1Cl (centres unmarked) [Compound 160] ?
[out] 2.0

[in] Then CCOC(=O)CN1C(=O)C(C(=O)OC(C)(C)C)SC1=Nc1cc(-n2c(=O)cc(C(F)(F)F)n(C)c2=O)c(F)cc1Cl (centres unmarked) [Compound 167] ?
[out] 7.0

====

system: CYPSE (Flatsedge); assay: Postemergence weed control under flooded paddy conditions; type: in vivo, Cyperus serotinus; details: rate 0.2500 kg/ha, postemergence weeds, 3-4 weeks after treatment
A collection of compounds and their measured Herbicidal rating CYPSE
Simply state the number, no unit and no words.

[in] Would you mind telling me what Herbicidal rating CYPSE value was observed for CCOC(=O)CN1C(=O)C(CC(=O)O)SC1=Nc1cc(-n2c(=O)cc(C(F)(F)F)n(C)c2=O)c(Cl)cc1Cl (stereo not drawn) ?
[out] 0.0

[in] Then `CN1C(=O)CS/C1=N/c1cc(-n2c(=O)cc(C(F)(F)F)n(C)c2=O)c(F)cc1Cl` ?
[out] 8.0

[in] Then CCOC(=O)CN1C(=O)C(CCO)S/C1=N/c1cc(-n2c(=O)cc(C(F)(F)F)n(C)c2=O)c(F)cc1Cl (stereo not drawn) ?
[out] 4.0

====

A collection of compounds and their measured Herbicidal rating ZEAMX
tested on: ZEAMX (Corn, Field); experiment: Postemergence herbicidal evaluation; assay type: in vivo, Zea mays; settings: postemergence, rate 0.0625 kg/ha

- Cn1c(C(F)(F)F)cc(=O)n(-c2cc(N=C3SCC(=O)N3C3CCCC3)c(Cl)cc2F)c1=O: 3.5
- C=C1SC(=Nc2cc(-n3c(=O)cc(C(F)(F)F)n(C)c3=O)c(F)cc2Cl)N(CC(=O)OCC)C1=O: 5.0
- CCOC(=O)CN1C(=O)C(Br)SC1=Nc1cc(-n2c(=O)cc(C(F)(F)F)n(C)c2=O)c(F)cc1Cl (stereo not drawn): 4.5

[in] Would you mind telling me what Herbicidal rating ZEAMX value was observed for C=CCN1C(=O)C(CC(=O)NS(=O)(=O)c2ccccc2)SC1=Nc1cc(-n2c(=O)cc(C(F)(F)F)n(C)c2=O)c(F)cc1Cl (stereo not drawn) ?
[out] 5.0

[in] Then `Cn1c(C(F)(F)F)cc(=O)n(-c2cc(N=C3SCC(=O)N3Cc3cccc(Cl)c3)c(Cl)cc2F)c1=O` ?
[out] 4.0

[in] Then `COc1cc(CN2C(=O)CSC2=Nc2cc(-n3c(=O)cc(C(F)(F)F)n(C)c3=O)c(F)cc2Cl)cc(OC)c1OC` ?
[out] 4.0

[in] Then `Cn1c(C(F)(F)F)cc(=O)n(-c2cc(N=C3SCC(=O)N3Cc3ccccn3)c(Cl)cc2F)c1=O` ?
[out] 4.5

[in] Then `Cn1c(C(F)(F)F)cc(=O)n(-c2cc(N=C3SCC(=O)N3Cc3ccc(C(F)(F)F)cc3)c(Cl)cc2F)c1=O` ?
[out] 5.0

[in] Then `CC(C)COC(=O)CN1C(=O)CSC1=Nc1cc(-n2c(=O)cc(C(F)(F)F)n(C)c2=O)c(F)cc1Cl` ?
[out] 6.0

====

test system: AMBEL (Ragweed, Common); experiment: Postemergence herbicidal evaluation; format: in vivo, Ambrosia artemisifolia; conditions: postemergence, rate 0.0158 kg/ha
Parameter: AMBEL herbicidal rating
Simply state the number, no unit and no words.

Answered examples (2):
* C=CCOC(=O)CC1SC(=Nc2cc(-n3c(=O)cc(C(F)(F)F)n(C)c3=O)c(F)cc2Cl)N(CC=C)C1=O (centres unmarked) | 9.0
* CN(C)N1C(=O)CSC1=Nc1cc(-n2c(=O)cc(C(F)(F)F)n(C)c2=O)c(F)cc1Cl | 2.0

[in] Would you mind telling me what AMBEL herbicidal rating value was observed for CCOC(=O)CN1C(=O)C(Cc2ccccc2)SC1=Nc1cc(-n2c(=O)cc(C(F)(F)F)n(C)c2=O)c(F)cc1Cl (centres unmarked) ?
[out] 2.0

[in] Then CN1C(=O)C(CC(=O)Nc2ccccc2)SC1=Nc1cc(-n2c(=O)cc(C(F)(F)F)n(C)c2=O)c(F)cc1Cl (centres unmarked) ?
[out] 0.0

[in] Then `C[C@H](C(=O)O)N1C(=O)CSC1=Nc1cc(-n2c(=O)cc(C(F)(F)F)n(C)c2=O)c(F)cc1Cl` ?
[out] 6.0

====

tested on: CYPSE (Flatsedge); test: Preemergence weed control under flooded paddy conditions; format: in vivo, Cyperus serotinus; conditions: 0.2500 kg/ha, rated 3-4 weeks after treatment
Parameter: herbicidal effect rating, CYPSE
Simply state the number, no unit and no words.

* COCCCN1C(=O)CSC1=Nc1cc(-n2c(=O)cc(C(F)(F)F)n(C)c2=O)c(F)cc1Cl | 9.0
* Cn1c(C(F)(F)F)cc(=O)n(-c2cc(N=C3SCC(=O)N3Cc3ccc(Cl)c(Cl)c3)c(Cl)cc2F)c1=O | 9.0
* Cn1c(C(F)(F)F)cc(=O)n(-c2cc(N=C3SCC(=O)N3CC(=O)OC3CCCC3)c(Cl)cc2F)c1=O | 3.5

Next, consider the following compound.
[in] Would you mind telling me what herbicidal effect rating, CYPSE value was observed for `CC(C)COC(=O)CN1C(=O)CSC1=Nc1cc(-n2c(=O)cc(C(F)(F)F)n(C)c2=O)c(F)cc1Cl` ?
[out] 5.0
